Provenance of the data: patent US20110212960A1

- ASSAY SYSTEM: human PDE9A2 (Homo sapiens, UniProt O76083)
- Construct: made in house; host or cells: Sf9 insect cells (infected; crude lysate used as enzyme source)
- Sequence (O76083 1-533 isoform O76083-2): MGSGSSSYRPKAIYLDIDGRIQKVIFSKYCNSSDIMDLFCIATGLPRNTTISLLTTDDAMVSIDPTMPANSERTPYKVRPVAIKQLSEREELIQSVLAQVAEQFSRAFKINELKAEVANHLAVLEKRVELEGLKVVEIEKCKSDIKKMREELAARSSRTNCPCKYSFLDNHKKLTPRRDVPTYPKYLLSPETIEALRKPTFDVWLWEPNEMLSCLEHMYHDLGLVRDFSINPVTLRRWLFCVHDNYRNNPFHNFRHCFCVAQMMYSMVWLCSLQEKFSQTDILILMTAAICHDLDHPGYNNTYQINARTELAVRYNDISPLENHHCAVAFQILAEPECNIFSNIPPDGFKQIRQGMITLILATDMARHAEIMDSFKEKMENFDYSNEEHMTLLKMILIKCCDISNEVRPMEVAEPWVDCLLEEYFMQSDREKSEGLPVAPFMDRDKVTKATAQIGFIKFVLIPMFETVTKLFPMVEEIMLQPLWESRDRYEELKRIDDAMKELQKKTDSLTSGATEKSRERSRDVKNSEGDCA
- METHOD SUMMARY: PDE9A2 enzymatic activity assay (scintillation proximity assay)
- Format: biochemical
- RECORDED CONDITIONS: at 10 micromolar concentration; read-out: % inhibition of PDE9A2
- Protocol: The PDE9A2 enzymatic activity assay was run as scintillation proximity assay (SPA), in general according to the protocol of the manufacturer (Amersham Biosciences, product number: TRKQ 7100). As enzyme source, lysate (PBS with 1% Triton X-100 supplemented with protease inhibitors, cell debris removed by centrifugation at 13.000 rpm for 30 min) of SF 9 cell expressing the human PDE9A2 was used. […]
# inhibition at 10 µM annotations

[
  {
    "COMPOUND": "O=C([C@H]1CC[C@@H]1c1nc2c(cnn2C2CCC(F)(F)CC2)c(=O)[nH]1)N1CCC(C(F)(F)F)CC1 (racemic) [Example 6]",
    "inhibition at 10 µM, %": 101
  },
  {
    "COMPOUND": "O=C([C@@H]1CC[C@@H]1c1nc2c(cnn2C2CCC(F)(F)CC2)c(=O)[nH]1)N1CCCCC1 (racemic) [Example 34]",
    "inhibition at 10 µM, %": 57
  },
  {
    "COMPOUND": "Cc1ccncc1-n1ncc2c(=O)[nH]c(C3CC(C)(C)C3)nc21 [Example 35]",
    "inhibition at 10 µM, %": 50
  },
  {
    "COMPOUND": "O=C([C@H]1CC[C@@H]1c1nc2c(cnn2C2CCC(F)(F)CC2)c(=O)[nH]1)N1CCC(F)(F)C1 (racemic) [Example 3]",
    "inhibition at 10 µM, %": 100
  },
  {
    "COMPOUND": "CO[C@@H]1CCN(C(=O)[C@H]2CC[C@@H]2c2nc3c(cnn3C3CCC(F)(F)CC3)c(=O)[nH]2)C1 (racemic) [Example 7]",
    "inhibition at 10 µM, %": 102
  },
  {
    "COMPOUND": "O=C([C@H]1CCCC[C@@H]1c1nc2c(cnn2C2CCC(F)(F)CC2)c(=O)[nH]1)N1CCOCC1 (racemic) [Example 20]",
    "inhibition at 10 µM, %": 71
  },
  {
    "COMPOUND": "O=c1[nH]c(C2CCC2)nc2c1cnn2C1CCC(F)(F)CC1 [Example 30]",
    "inhibition at 10 µM, %": 96
  },
  {
    "COMPOUND": "CC1(C)CCN(C(=O)[C@H]2CC[C@@H]2c2nc3c(cnn3C3CCC(F)(F)CC3)c(=O)[nH]2)CC1 (racemic) [Example 10]",
    "inhibition at 10 µM, %": 97
  },
  {
    "COMPOUND": "CC1(C)CN(C(=O)[C@H]2CC[C@@H]2c2nc3c(cnn3C3CCC(F)(F)CC3)c(=O)[nH]2)CCO1 (racemic) [Example 16]",
    "inhibition at 10 µM, %": 98
  }
]

---

- ASSAY SYSTEM: human PDE9A2 (Homo sapiens, UniProt O76083)
- Construct: made in house; host or cells: Sf9 insect cells (infected; crude lysate used as enzyme source)
- METHOD SUMMARY: PDE9A2 enzymatic activity assay (scintillation proximity assay)
- Assay type: biochemical
- RECORDED CONDITIONS: specific IC50 value lies within the given range; read-out: IC50 within range [nanomolar (nM)]
# Lookup of reported IC50 keyed by entry

[
  {
    "COMPOUND": "O=C([C@H]1CC[C@@H]1c1nc2c(cnn2C2CCC(F)(F)CC2)c(=O)[nH]1)N1CCCC1 (racemic)",
    "IC50": "1 to 200 nM"
  },
  {
    "COMPOUND": "O=c1[nH]c([C@@H]2CC[C@H]2CO)nc2c1cnn2C1CCC(F)(F)CC1 (racemic)",
    "IC50": "201 to 5000 nM"
  },
  {
    "COMPOUND": "Cc1ccccc1-n1ncc2c(=O)[nH]c(C3CC3C)nc21 (mixture of isomers)",
    "IC50": "1 to 200 nM"
  },
  {
    "COMPOUND": "Cc1noc(C2CCC2c2nc3c(cnn3C3CCC(F)(F)CC3)c(=O)[nH]2)n1 (racemic)",
    "IC50": "1 to 200 nM"
  }
]

---

- ASSAY SYSTEM: human PDE9A2 (Homo sapiens, UniProt O76083)
- Construct: made in house; host or cells: Sf9 insect cells (infected; crude lysate used as enzyme source)
- METHOD SUMMARY: PDE9A2 enzymatic activity assay (scintillation proximity assay)
- Type: biochemical
pIC50: −log10 of the molar value.
QUANTITY NAME: pIC50

[
  {
    "MOLECULE": "O=C([C@H]1CC[C@@H]1c1nc2c(cnn2C2CCC(F)(F)CC2)c(=O)[nH]1)N1C[C@H]2CCC[C@H]2C1 (racemic) [Example 8]",
    "QUANTITY NAME": "pIC50",
    "REPORTED": "6.70 to 9.00"
  }
]

---

Measured IC50, listed per entry.
- ASSAY SYSTEM: human PDE9A2 (Homo sapiens)
- Construct: made in house; host or cells: Sf9 insect cells (infected; crude lysate used as enzyme source)
- METHOD SUMMARY: PDE9A2 enzymatic activity assay (scintillation proximity assay)
- Type: biochemical
- RECORDED CONDITIONS: specific IC50 value lies within the given range; read-out: IC50 within range [nanomolar (nM)]

[
  {
    "COMPOUND": "O=C(O)[C@H]1CC[C@@H]1c1nc2c(cnn2C2CCC(F)(F)CC2)c(=O)[nH]1 (racemic)",
    "IC50": "1 to 200 nM"
  },
  {
    "COMPOUND": "O=C([C@H]1CC[C@@H]1c1nc2c(cnn2C2CCC(F)(F)CC2)c(=O)[nH]1)N1CCC(F)(F)C1 (racemic)",
    "IC50": "1 to 200 nM"
  },
  {
    "COMPOUND": "O=C(C1CCCC1c1nc2c(cnn2C2CCCC2)c(=O)[nH]1)N1CCCCC1 (racemic)",
    "IC50": "1 to 200 nM"
  },
  {
    "COMPOUND": "Cc1ccncc1-n1ncc2c(=O)[nH]c(C3CCC3)nc21",
    "IC50": "201 to 5000 nM"
  }
]

---

- ASSAY SYSTEM: human PDE9A2 (Homo sapiens, UniProt O76083)
- Construct: made in house; host or cells: Sf9 insect cells (infected; crude lysate used as enzyme source)
- METHOD SUMMARY: PDE9A2 enzymatic activity assay (scintillation proximity assay)
- Assay type: biochemical
- RECORDED CONDITIONS: specific IC50 value lies within the given range; read-out: IC50 within range [nanomolar (nM)]
Examples of molecules with documented IC50 follow.
QUANTITY NAME: IC50

[
  {
    "MOLECULE": "O=C([C@H]1C[C@@H]1c1nc2c(cnn2C2CCC(F)(F)CC2)c(=O)[nH]1)N1CCCCC1 (racemic)",
    "REPORTED": "201 to 5000 nM"
  },
  {
    "MOLECULE": "O=C([C@H]1CC[C@@H]1c1nc2c(cnn2C2CCC(F)(F)CC2)c(=O)[nH]1)N1CCC(F)(F)CC1 (racemic)",
    "REPORTED": "1 to 200 nM"
  },
  {
    "MOLECULE": "CC1(C)CN(C(=O)[C@H]2CC[C@@H]2c2nc3c(cnn3C3CCC(F)(F)CC3)c(=O)[nH]2)CCO1 (racemic)",
    "REPORTED": "1 to 200 nM"
  },
  {
    "MOLECULE": "O=c1[nH]c([C@@H]2CC[C@H]2Cn2cccn2)nc2c1cnn2C1CCC(F)(F)CC1 (racemic)",
    "REPORTED": "201 to 5000 nM"
  },
  {
    "MOLECULE": "Cc1ccncc1-n1ncc2c(=O)[nH]c(C3CC(C)(C)C3)nc21",
    "REPORTED": "201 to 5000 nM"
  },
  {
    "MOLECULE": "O=C([C@H]1CC[C@@H]1c1nc2c(cnn2C2CCC(F)(F)CC2)c(=O)[nH]1)N1CC(F)(F)C(F)(F)C1 (racemic)",
    "REPORTED": "1 to 200 nM"
  },
  {
    "MOLECULE": "O=C([C@H]1CCCC[C@@H]1c1nc2c(cnn2C2CCC(F)(F)CC2)c(=O)[nH]1)N1CCCC1 (racemic)",
    "REPORTED": "1 to 200 nM"
  },
  {
    "MOLECULE": "O=C([C@H]1CC[C@@H]1c1nc2c(cnn2C2CCC(F)(F)CC2)c(=O)[nH]1)N1CCCC(F)(F)C1 (racemic)",
    "REPORTED": "1 to 200 nM"
  },
  {
    "MOLECULE": "COC1(C)CCN(C(=O)[C@H]2CC[C@@H]2c2nc3c(cnn3C3CCC(F)(F)CC3)c(=O)[nH]2)CC1 (racemic)",
    "REPORTED": "1 to 200 nM"
  },
  {
    "MOLECULE": "CCOC(=O)C1CCCC(c2nc3c(cnn3C(CC)CC)c(=O)[nH]2)C1 (mixture of isomers)",
    "REPORTED": "201 to 5000 nM"
  },
  {
    "MOLECULE": "CCN(CC)C(=O)[C@H]1CC[C@@H]1c1nc2c(cnn2C2CCC(F)(F)CC2)c(=O)[nH]1 (racemic)",
    "REPORTED": "1 to 200 nM"
  },
  {
    "MOLECULE": "O=c1[nH]c(C2CCC2)nc2c1cnn2C1CCCC1",
    "REPORTED": "1 to 200 nM"
  },
  {
    "MOLECULE": "CC1CCN(C(=O)[C@H]2CC[C@@H]2c2nc3c(cnn3C3CCC(F)(F)CC3)c(=O)[nH]2)CC1 (racemic)",
    "REPORTED": "1 to 200 nM"
  },
  {
    "MOLECULE": "CCC(CC)n1ncc2c(=O)[nH]c(C3CCCC(C(=O)O)C3)nc21 (single isomer, unassigned)",
    "REPORTED": "201 to 5000 nM"
  },
  {
    "MOLECULE": "Cc1ccccc1-n1ncc2c(=O)[nH]c(C3CCCC(O)C3)nc21 (mixture of isomers)",
    "REPORTED": "201 to 5000 nM"
  },
  {
    "MOLECULE": "O=C([C@H]1CC[C@@H]1c1nc2c(cnn2C2CCCC2)c(=O)[nH]1)N1CCCCC1 (racemic)",
    "REPORTED": "1 to 200 nM"
  }
]
